Target: Nod2 (Homo sapiens)
Sequence (Q9HC29 whole entry): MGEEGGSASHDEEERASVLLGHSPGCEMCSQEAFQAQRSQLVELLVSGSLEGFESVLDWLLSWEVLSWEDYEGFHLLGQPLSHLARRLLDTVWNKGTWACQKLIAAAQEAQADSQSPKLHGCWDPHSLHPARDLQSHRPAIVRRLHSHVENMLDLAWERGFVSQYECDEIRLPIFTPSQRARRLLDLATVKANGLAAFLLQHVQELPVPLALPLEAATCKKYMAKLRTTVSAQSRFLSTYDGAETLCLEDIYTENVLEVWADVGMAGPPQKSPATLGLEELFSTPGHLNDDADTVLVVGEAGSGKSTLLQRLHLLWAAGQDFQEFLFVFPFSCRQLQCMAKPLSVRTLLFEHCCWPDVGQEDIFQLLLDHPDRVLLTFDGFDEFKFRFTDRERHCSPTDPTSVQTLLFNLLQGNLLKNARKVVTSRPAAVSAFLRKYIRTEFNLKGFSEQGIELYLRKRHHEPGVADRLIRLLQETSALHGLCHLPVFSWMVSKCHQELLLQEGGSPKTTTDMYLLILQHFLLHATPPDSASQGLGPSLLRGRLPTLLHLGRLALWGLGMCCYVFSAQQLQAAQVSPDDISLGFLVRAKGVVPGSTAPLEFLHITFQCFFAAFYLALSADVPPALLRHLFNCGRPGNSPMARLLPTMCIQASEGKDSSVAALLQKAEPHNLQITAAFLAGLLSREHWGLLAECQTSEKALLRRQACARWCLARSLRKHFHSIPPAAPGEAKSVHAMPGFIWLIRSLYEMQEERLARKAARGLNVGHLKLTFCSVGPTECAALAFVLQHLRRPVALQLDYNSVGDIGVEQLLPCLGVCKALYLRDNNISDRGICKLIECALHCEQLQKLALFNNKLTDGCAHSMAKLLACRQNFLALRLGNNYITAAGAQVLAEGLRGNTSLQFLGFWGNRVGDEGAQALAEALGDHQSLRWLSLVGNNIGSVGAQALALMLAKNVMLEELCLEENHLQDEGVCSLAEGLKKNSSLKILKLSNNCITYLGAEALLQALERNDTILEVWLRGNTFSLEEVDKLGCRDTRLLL
Measurement Type: Kd

[[record]]
molecule = "CC(=O)N[C@H]1C(O)O[C@H](CO)[C@@H](O)[C@@H]1O[C@H](C)C(=O)N[C@@H](C)C(=O)N[C@H](CCC(=O)O)C(N)=O (stereo partly shown) [D2, N-acetyl-MDP]"
measurement_type = "Kd"
experimental_result = "51 nM"

